- method description: qHTS of pediatric cancer cell lines to identify multiple opportunities for drug repurposing: Primary screen for OHS-50 cells (AID 1347103); further: nearly all actives have a fitted effect of over 40% in size
- stated conditions: OHS-50 osteosarcoma viability, CellTiter-Glo luminescence, 48 h; series mostly up to 57.3 µM
Records with an inconclusive call do not appear. Activity calls are given as the source filed them. The call rests on the fitted dose curve; in most records, active means well fitted cell-killing curve with a large enough effect; inconclusive means small, poorly fitted or top-dose-only effect; inactive means no such curve, though single readings can be large or run the other way.
Possible outcomes: true for active, false for inactive

1. COc1ccc(C2Sc3ccccc3N(CCN(C)C)C(=O)C2OC(C)=O)cc1 (centres undefined) :: false
2. CC(C)(C(=O)NCC(F)(F)C(F)(F)F)C(=O)N[C@@H]1C(=O)Nc2ccccc2-c2ccccc21 :: true
3. O=C1NC(=O)C(c2ccccc2)(c2ccccc2)N1 :: false
4. CC(=O)N(C)C1(c2ccccc2)CCN(CCC[C@]2(c3ccc(Cl)c(Cl)c3)CCCN(C(=O)c3ccccc3)C2)CC1 :: true
5. NS(=O)(=O)c1ccc(NC2=CC(=O)c3ccccc3C2=O)cc1 :: false
6. CCN(CC)CCNC(=O)c1ccc(N)cc1 :: false
7. CC(C)(C)OC(=O)N[C@H]1CCCCCC=C[C@@H]2C[C@@]2(C(=O)NS(=O)(=O)C2CC2)NC(=O)[C@@H]2C[C@@H](OC(=O)N3Cc4cccc(F)c4C3)CN2C1=O :: false
8. COCCOc1nc(-c2ccc(Cl)c(Cl)c2)n(-c2ccc(NC(=O)CCl)cc2)n1 :: true
9. CN(C)CCC(c1ccccc1)c1ccccn1 (centres undefined) :: false

* * *

- method description: Cell Viability - LYMP2-021 (AID 974);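 further: compound exposure lasts 24 hours at 37 °C; nearly all actives have a fitted effect of over 55% in size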
- stated conditions: LYMP2-021 lymphoblastoid cells viability; series mostly up to 92.2 µM
Records with an inconclusive call do not appear. Active and inactive are the calls of the source. The call rests on the fitted dose curve; in most records, active means well fitted cell-killing curve with a large enough effect; inconclusive means small, poorly fitted or top-dose-only effect; inactive means flat fitted curve, though single readings scatter.
Possible outcomes: active, inactive

1. O=c1[nH]cnc2c1ncn2[C@H]1CC[C@@H](CO)O1 :: inactive
2. CCCNC(=O)NS(=O)(=O)c1ccc(Cl)cc1 :: inactive
3. CC/C(=C(\c1ccccc1)c1ccc(OCCN(C)C)cc1)c1ccccc1 :: active
4. O=C(O)Cc1cccc2ccccc12 :: inactive
5. CCCCC1C(=O)N(c2ccccc2)N(c2ccccc2)C1=O :: inactive
6. CCn1cc(C(=O)O)c(=O)c2ccc(C)nc21 :: inactive
7. CN(C)CCC(c1ccccc1)c1ccccn1 (configuration not stated) :: inactive

* * *

- method description: Quantitative High-Throughput drug screen in 47 multiple myeloma cell lines against the NCATS MIPE library collection: ARP1_JJKsccF8 cell viability assay (AID 1918928; further: nearly all actives have a fitted effect of over 40% in size)
- stated conditions: ARP1 myeloma cells viability, CellTiter-Glo ATP, 48 h; series mostly up to 45.8 µM
Records with an inconclusive call do not appear. Active and inactive are the calls of the source. Calls follow the shape of the dose curve; as a rule, active = well fitted cell-killing curve with a large enough effect; inconclusive = small, poorly fitted or top-dose-only effect, or effect the other way; inactive = no such curve, though single readings can be large or run the other way.
Possible outcomes: T = active, F = inactive

1. O=C1NC(=O)C(=Cc2ccc3nccnc3c2)S1 :: T
2. CC(C)(Cc1ccc2ccccc2c1)NC[C@@H](O)COc1cccc(Cl)c1C#N :: F
3. NC(=O)c1cnc(-c2ccc(C3(N)CCC3)cc2)c(-c2ccccc2)c1 :: T
4. CC(C)(C(=O)NCC(F)(F)C(F)(F)F)C(=O)N[C@@H]1C(=O)Nc2ccccc2-c2ccccc21 :: F
5. CNC1CCC(N(Cc2cccc(-c3ccncc3)c2)C(=O)c2sc3c(F)ccc(F)c3c2Cl)CC1 (stereo not drawn) :: T
6. CN(C)Cc1cccc(N=C(c2ccccc2)c2c(O)[nH]c3cc(C(=O)N(C)C)ccc23)c1 :: F
7. O=C(CCCCCCC(=O)Nc1ccccc1)NO :: T
8. Cc1ccn(-c2ccc(-c3ncco3)cc2)c(=O)c1-c1ccc2nc(N)ncc2c1 :: F

* * *

- target of assay: N-terminal Xaa-Pro-Lys N-methyltransferase 1 (Homo sapiens)
- method description: Confirmatory qHTS for Inhibitors of N-terminal methyltransferase 1 (NTMT1): MTaseGlo Assay (AID 1645874); further: nearly all actives have a fitted effect of over 65% in size
- stated conditions: NTMT1 enzyme, MTase-Glo SAH luminescence; series mostly up to 100 µM
Inconclusive results are not listed. Calls of active or inactive are those of the source. The call rests on the fitted dose curve; in most records, active means well fitted inhibition curve with a large enough effect; inconclusive means small, poorly fitted or top-dose-only effect; inactive means no such curve, though single readings can be large or run the other way.
Possible outcomes: active, inactive

1) CCOc1ccc(Nc2nc(-c3c(C)nc4ccccn34)cs2)cc1 :: inactive
2) O=C(O)c1c(Cl)c(Cl)c(Cl)c(Cl)c1-c1c2cc(I)c(=O)c(I)c-2oc2c(I)c(O)c(I)cc12 :: active
3) O=C(Nc1ccccc1-c1cn2c(CN3CCNCC3)csc2n1)c1cnc2ccccc2n1 :: active
4) COc1cc2ncnc(Nc3ccc(F)c(Cl)c3)c2cc1OCCCN1CCOCC1 :: active
5) COc1cc(Nc2ncc(F)c(Nc3ccc4c(n3)NC(=O)C(C)(C)O4)n2)cc(OC)c1OC :: inactive
6) O=c1c(-c2ccc(O)cc2)coc2cc(O)ccc12 :: inactive

* * *

- method description: Quantitative High-Throughput drug screen in 47 multiple myeloma cell lines against the NCATS MIPE library collection: RPMI8226_ATCC cell viability assay (AID 1919871); further: nearly all actives have a fitted effect of over 30% in size
- stated conditions: RPMI8226 myeloma viability, CellTiter-Glo ATP luminescence, 48 h; series mostly up to 45.8 µM
Records with an inconclusive call do not appear. Active and inactive are the calls of the source. The call rests on the fitted dose curve; in most records, active means well fitted cell-killing curve with a large enough effect; inconclusive means small, poorly fitted or top-dose-only effect, or effect the other way; inactive means no such curve, though single readings can be large or run the other way.
Possible outcomes: active, inactive

1) Nc1nc(F)nc2c1ncn2[C@@H]1O[C@H](COP(=O)(O)O)[C@@H](O)[C@H]1O :: inactive
2) NC1=N[C@@]2(c3cc(NC(=O)c4ccc(F)cn4)ccc3F)COC[C@@H]2CS1 :: inactive
3) NS(=O)(=O)c1cccc2c1C(=O)c1cccc(O)c1C2=O :: active
4) CN1[C@@H]2CCC[C@@H]1CC(NC(=O)c1nn(C)c3ccccc13)C2 (stereo not given in full) :: inactive
5) Oc1ccc(C2=Cc3ccc(O)cc3OC2)cc1 :: active
6) O=C(Nc1ccccc1-c1cn2c(CN3CCNCC3)csc2n1)c1cnc2ccccc2n1 :: active
7) CCC(=O)NC[C@H](Cc1ccc(OCCc2nc(-c3ccccc3)oc2C)cc1)NC(C)=CC(=O)c1ccc(C(F)(F)F)cc1 :: active
8) OC[C@H]1O[C@@H](n2cnc3c2NC=NC[C@@H]3O)C[C@H]1O :: inactive
9) CC(C(=O)O)c1ccc(-c2ccccc2)c(F)c1 (stereo not given) :: inactive
10) O=c1[nH]cnc2c1ncn2[C@H]1CC[C@@H](CO)O1 :: inactive

* * *

- method description: Quantitative High-Throughput drug screen in 47 multiple myeloma cell lines against the NCATS MIPE library collection: KMS12BM_JCRB cell viability assay (AID 1918971); further: nearly all actives have a fitted effect of over 35% in size
- stated conditions: KMS12BM myeloma viability, CellTiter-Glo ATP, 48 h; series mostly up to 45.8 µM
Results filed as inconclusive are left out. Active and inactive are the calls of the source. Calls follow the shape of the dose curve; as a rule, active = well fitted cell-killing curve with a large enough effect; inconclusive = small, poorly fitted or top-dose-only effect, or effect the other way; inactive = no such curve, though single readings can be large or run the other way.
Possible outcomes: Y (active), N (inactive)

1. COC(=O)N[C@H](C(=O)N1CCC[C@@H]1c1ncc(-c2ccc(-c3ccc(-c4cnc([C@@H]5CCCN5C(=O)[C@@H](NC(=O)OC)C(C)C)[nH]4)cc3)cc2)[nH]1)C(C)C :: Y
2. COc1cc2c(cc1OC)CN(CCc1ccc(NC(=O)c3cc(OC)c(OC)cc3NC(=O)c3cnc4ccccc4c3)cc1)CC2 :: Y
3. N#Cc1ccc(NC(=O)Nc2ccccc2Br)c2n[nH]nc12 :: N
4. N#CC1(c2ccc(NC(=O)c3cccnc3NCc3ccncc3)cc2)CCCC1 :: Y
5. O=C(Nc1cccc(Br)c1)c1cccc(S(=O)(=O)N2CCCCCC2)c1 :: Y
6. O=c1cc(CN2CCOCC2)occ1OCCCCCSc1ccnc2cc(C(F)(F)F)ccc12 :: Y
7. Cc1ccc(/C=N/NC(=O)c2ccccc2Oc2ccccc2)o1 :: Y
8. CC(C)n1cnc2c(NCCCCCCNC(=O)OC(C)(C)C)nc(NCCO)nc21 :: Y
9. O=C(Nc1c(Cl)cncc1Cl)c1ccc(OC(F)F)c(OCC2CC2)c1 :: N
10. Cc1ccn(-c2ccc(-c3ncco3)cc2)c(=O)c1-c1ccc2nc(N)ncc2c1 :: Y

* * *

- method description: Cell Viability - NIH 3T3 (AID 541);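 further: cells exposed to compound for 40 hours; nearly all actives have a fitted effect of over 25% in size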
- stated conditions: NIH 3T3 cell viability, qHTS; at 92.2 µM (top of the series)
Inconclusive results are not listed.
hey, just use Y if measured activity change, negative = cytotoxicity is less than -20%, otherwise N

1. CC1=C(/C=C/C(C)=C/C=C/C(C)=C/C(=O)Nc2ccc(O)cc2)C(C)(C)CCC1 :: Y
2. O=c1cc(-c2ccc(O)cc2)oc2cc(O)cc(O)c12 :: Y
3. CCCCC1C(=O)N(c2ccccc2)N(c2ccccc2)C1=O :: N
4. CCCNC(=O)NS(=O)(=O)c1ccc(Cl)cc1 :: N
5. CC(=O)c1ccc(S(=O)(=O)NC(=O)NC2CCCCC2)cc1 :: N
6. CN(C)CCC(c1ccccc1)c1ccccn1 (stereo not drawn) :: N
7. CC(=O)O[C@]1(C(C)=O)CC[C@H]2[C@@H]3C=C(Cl)C4=CC(=O)[C@@H]5C[C@@H]5[C@]4(C)[C@H]3CC[C@@]21C :: Y
8. O=C1NC(=O)C(c2ccccc2)(c2ccccc2)N1 :: N
